# ASSAY REMARKS: NCI Yeast Anticancer Drug Screen. Data for the bub3 strain (AID 167)
# EXPERIMENTAL SETUP: S. cerevisiae bub3 mutant strain, at 50.0 µM, stronger effect = higher value
Compounds without any hit were thinned out: in the full panel of roughly 79,000, 15% have a hit.
MEASURED PARAMETER: growth inhibition (%)
Numbers only; they are read as %.

Worked set:
MOLECULE: Oc1[nH]c2ccccc2c1N=NC(=S)N1CCCC1
growth inhibition (%): 61.6
//
MOLECULE: CC(C)(C)C(=O)CC(=O)C(F)(F)C(F)(F)C(F)(F)F.[Ag]
growth inhibition (%): 87.8
//
MOLECULE: CCOC(=O)c1[nH]c(Br)c(-c2ccc(OC)c(OC)c2)c1Br
growth inhibition (%): 88
//
MOLECULE: Cc1ccc(S(=O)(=O)CC(=O)CC(=O)C(=O)Nc2cc(C)ccc2C)cc1
growth inhibition (%): -0.55
//
MOLECULE: O=[N+]([O-])c1cnc(Sc2cncc[n+]2[O-])s1
growth inhibition (%): 99.5
//
MOLECULE: CCN(CC)c1c(C(=O)/C=C/c2ccc(Cl)cc2)c(-c2ccccc2)nn(C)c1=O
growth inhibition (%): 84
//
MOLECULE: COc1ccc(C2COc3c(ccc(O)c3O)C2)cc1OC (stereo not drawn)
growth inhibition (%): 32.9
//
MOLECULE: Oc1c(N(Cc2ccccc2)Cc2ccccc2)ccc2cccnc12
growth inhibition (%): 98.8
//
MOLECULE: Nc1nccc2c1ncn2C1C=C(CO)C(O)C1O (stereo not drawn)
growth inhibition (%): 57.1
//
MOLECULE: NC(=O)N/N=C/c1ccc(Cl)s1
growth inhibition (%): 82.5

State, in one line, measured growth inhibition of `O=C(Nc1ccccc1)c1ccc([N+](=O)[O-])o1` 91.4

Input `Cn1cc(NC(=O)c2cc(NC(=O)CCCCCCC(=O)Nc3cc(C(=O)Nc4cc(C(=O)NCCC(=N)N)n(C)c4)n(C)c3)cn2C)cc1C(=O)NCCC(=N)N` , output reported growth inhibition. 92.2

Supply reported growth inhibition belonging to this molecule: O=C(CCC(NC(=O)OCc1ccccc1)C(=O)OCc1ccccc1)NC(CSCc1ccccc1)C(=O)NCC(=O)Oc1c(Cl)c(Cl)c(Cl)c(Cl)c1Cl (stereo not drawn) 18.8

Quickly give me recorded growth inhibition for `O=C(O)C(SC1=NNC2(C(=O)N1)c1ccccc1-c1ccccc12)SC1=NNC2(C(=O)N1)c1ccccc1-c1ccccc12` 98

Fill in growth inhibition for record `Cc1[nH]nc(C(=O)OC(C)C)c1N=NN(C)C` 98.3

* * *

# ASSAY REMARKS: NCI Yeast Anticancer Drug Screen. Data for the cln2 rad14 strain (AID 165);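 note: 0% = growth equal to vehicle treated cultures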
# EXPERIMENTAL SETUP: S. cerevisiae cln2 rad14 strain, at 50.0 µM, stronger effect = higher value
The panel holds about 79,000 compounds, 15% with a hit somewhere; the sample as a whole holds those more often.
MEASURED PARAMETER: growth inhibition (%)
Write the number in % without appending the unit.

Answered cases to consult:
MOLECULE: Cc1noc(NS(=O)(=O)c2ccc(NC(=S)/N=C/c3c(O)[nH]c(=O)[nH]c3=O)cc2)c1C
READOUT VALUE: 44.8

MOLECULE: Nc1ccc2nc(N)sc2c1
READOUT VALUE: 42.9

MOLECULE: CC(=O)/C(=C/n1c(=S)[nH]c2ccc([N+](=O)[O-])cc21)C(=O)Nc1ccc(Cl)cc1
READOUT VALUE: 46.4

MOLECULE: COC1OC2COC(c3ccccc3)OC2C(NC(=S)SCc2ccccc2)C1O (stereo not given)
READOUT VALUE: 99.5

Return growth inhibition for the following molecule: CCCCNCCC1(c2ccccc2)C(=O)Oc2ccccc21 (stereo not given) 46.2

* * *

# ASSAY REMARKS: NCI Yeast Anticancer Drug Screen. Data for the rad50 strain (AID 155);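 note: 0% = growth of vehicle-only cultures of the same strain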
# EXPERIMENTAL SETUP: S. cerevisiae rad50 strain growth inhibition; at 5.0 µM (retest, dose inferred, filed as 0.5)
Compounds without any hit were thinned out: in the full panel of roughly 79,000, 15% have a hit. Calls of active or inactive are those of the source. Rule as the data show it: active = growth inhibition above about 70%; inactive = the rest.
Outcomes you can answer with include only these: label 1 = active, label 0 = inactive

Solved cases (5 shown):
MOLECULE: O=C(/C(O)=C(\O)C(=O)N(C1CCCCC1)C1CCCCC1)N(C1CCCCC1)C1CCCCC1
ANSWER LABEL: label 0
--
MOLECULE: Nc1nccc2c1ncn2C1C=C(CO)C(O)C1O (stereo not given)
ANSWER LABEL: label 0
--
MOLECULE: COc1ccc(/C(=C/CN2CCC3CCC(C3)C2)c2ccccc2)cc1 (stereo not given)
ANSWER LABEL: label 0
--
MOLECULE: COc1cc(OC(C)C)cc2c1C(=O)C(C(O)(O)C(F)(F)F)=CC2=O
ANSWER LABEL: label 0
--
MOLECULE: CN(C)C[N+](C)(C)Cc1ccc(C[N+](C)(C)C[N+](C)(C)Cc2ccc(CCl)cc2)cc1
ANSWER LABEL: label 0

Look up the recorded call for O=C1N(Cc2ccccc2)CC1(c1ccccc1)C1CCCCC1O (stereo not given) in this test. label 0

Hi team, can someone confirm the assay call for Cc1ccc(C2COc3cc(O)c(O)cc3C2)cc1 (stereo not given) ? label 0

Answer briefly: the call reported for `CCCC(=O)c1ccc(OC)cc1` in this assay. label 0

Could you kindly confirm the outcome this assay logged for CCOC(=O)C1SC(=Nc2ccc(Cl)cc2C)N=C1C (stereo not given) ? label 0

Any idea what this test logged for `CC1=C(C)CC(C#N)(C#N)C(C#N)(C#N)C1` ? label 0

* * *

# ASSAY REMARKS: NCI Yeast Anticancer Drug Screen. Data for the sgs1 mgt1 strain (AID 161);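 note: 0% = growth of cultures given vehicle only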
# EXPERIMENTAL SETUP: S. cerevisiae sgs1 mgt1 strain, at 50.0 µM (retest, dose inferred, filed as 5.0)
About 79,000 compounds went through this panel and 15% of them were active in at least one assay; those are over-represented in the sample as a whole. Active and inactive are the calls of the source. Cut-off read from the data, not from the text of the source: active = growth inhibition above about 70%; inactive = the rest.
The reply should be one of these categories: T = active, F = inactive

A selection of reference data follows.
COMPOUND: O=C1C=CC(=O)c2cc(Sc3ccccc3)c(=O)ccc21
ANSWER LABEL: T
--
COMPOUND: Cc1ccc(Sc2ccc3ccccc3n2)cc1
ANSWER LABEL: F
--
COMPOUND: CCOc1nc(N)nc(C)c1N=Nc1ccc(Cl)cc1
ANSWER LABEL: T

Here is another compound to look at.
Each compound tested received a call. Report the one for Cc1ccc2c(c1)C1(SC(C)C(=O)N1c1ccc(F)cc1)C(=O)N2 (stereo not given) . T

* * *

# ASSAY REMARKS: NCI Yeast Anticancer Drug Screen. Data for the cln2 rad14 strain (AID 165);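 note: 0% = growth equal to vehicle treated cultures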
# EXPERIMENTAL SETUP: S. cerevisiae cln2 rad14 strain, at 5.0 µM (retest, dose inferred, filed as 0.5)
Compounds without any hit were thinned out: in the full panel of roughly 79,000, 15% have a hit. The source made the active and inactive calls. No stated cut-off is given here; in the data, active means growth inhibition above about 70%; inactive means the rest.
Hi! Could you answer with just one of these? 1 (yes) for active, 0 (no) for inactive

COMPOUND: COc1ccc(CN2CCCN(Cc3ccc(OC)cc3OC)C2c2cc(Cl)ccc2O)c(OC)c1
ANSWER LABEL: 0 (no)
//
COMPOUND: Cc1c(N)nc(C(CC(N)=O)NCC(N)C(N)=O)nc1C(=O)NC(C(=O)NC(C)C(O)C(C)C(=O)NC(C(=O)NCCc1nc(-c2nc(C(=O)NCCCNC(C)c3ccccc3)cs2)cs1)C(C)O)C(OC1OC(CO)C(O)C(O)C1OC1OC(CO)C(O)C(OC(N)=O)C1O)c1cnc[nH]1 (stereo not given)
ANSWER LABEL: 1 (yes)
//
COMPOUND: Cc1ccc(S(=O)(=O)OCCc2ccc(Cl)cc2)cc1
ANSWER LABEL: 0 (no)
//
COMPOUND: Cc1ccc(S(=O)(=O)C(=S)Sc2ccccc2)cc1
ANSWER LABEL: 0 (no)

What call does the record list for `O=c1nc(NC(c2ccccc2)(c2ccccc2)c2ccccc2)ccn1CCNCCn1ccc(NC(c2ccccc2)(c2ccccc2)c2ccccc2)nc1=O` ? 0 (no)

* * *

Here the recorded growth inhibition is given for each entry.
# ASSAY REMARKS: NCI Yeast Anticancer Drug Screen. Data for the mec2-1 strain (AID 157)
# EXPERIMENTAL SETUP: S. cerevisiae mec2-1 strain, at 5.0 µM (retest, dose inferred, filed as 0.5), stronger effect = higher value
This is part of a sample that, as a whole, favours compounds with a hit. Of some 79,000 tested, about 15% had one in any assay.
Provide only the numeric value, understood in %.

The cases that follow already have their growth inhibition on record.
MOLECULE: CCCCCCCCC1OC1CCCCCCCC(=O)OCC1CO1 (centres undefined)
READOUT VALUE: 1
//
MOLECULE: CCCCCCN(CCCCCC)CCCC(O)c1cccc2ccccc12 (centres undefined)
READOUT VALUE: 2
//
MOLECULE: CCCCOc1ccc(CN2CCOC2=O)cc1
READOUT VALUE: 7

Please examine the following record next.
Look up growth inhibition of `COC(=O)CCCCCCCCCCC(=O)O` and report it. -1
